biological target: UniProt:P23280
Sequence (P23280 whole entry): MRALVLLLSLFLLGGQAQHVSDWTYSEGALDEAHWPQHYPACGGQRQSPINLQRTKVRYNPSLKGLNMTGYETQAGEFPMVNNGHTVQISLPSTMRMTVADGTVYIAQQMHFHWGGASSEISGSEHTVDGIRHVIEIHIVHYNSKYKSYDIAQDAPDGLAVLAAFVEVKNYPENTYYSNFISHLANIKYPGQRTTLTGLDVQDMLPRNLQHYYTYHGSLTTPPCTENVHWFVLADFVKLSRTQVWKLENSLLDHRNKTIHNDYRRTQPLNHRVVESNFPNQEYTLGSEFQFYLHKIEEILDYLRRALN
Categories are assigned from the measured Ki using these intervals: range A: < 800 nM; range B: ≥ 800 nM and < 1000 nM; range C: ≥ 1000 nM

> print(dat)
                                    compound  group.label
 1  Nc1ccc(S(=O)(=O)NCc2ccc(S(N)(=O)=O)cc2)cc1      range A
 2  Cc1ccc(S(N)(=O)=O)cc1 [P-TOLUENESULFONAMIDE]      range C
 3     Nc1ccc(S(N)(=O)=O)cc1 [SULFANILAMIDE]      range B
 4                   Nc1ccc(S(N)(=O)=O)cc1Br      range C
 5                    NS(=O)(=O)c1ccc(CO)cc1      range C
 6                       Nc1ccccc1S(N)(=O)=O      range A
 7    NS(=O)(=O)c1ccc(C(=O)O)cc1 [CARZENIDE]      range B
 8                      NNc1ccccc1S(N)(=O)=O      range C
 9  Nc1ccc(S(=O)(=O)NCCc2ccc(S(N)(=O)=O)cc2)cc1      range A
10         NCc1ccc(S(N)(=O)=O)cc1 [MAFENIDE]      range C
11  Nc1ccc(S(=O)(=O)Nc2nnc(S(N)(=O)=O)s2)cc1      range A
12                    Cn1nc(S(N)(=O)=O)sc1=N      range A
